Provenance of the data: PubChem BioAssay (NCI)

The entries below come with measured GI50 values attached.
Tested on: SF-295 CNS
ASSAY COMMENT: NCI tumour cell line growth inhibition, 48 h

The cases that follow already have their GI50 on record.
| MOLECULE | ATTRIBUTE MEASURED | RESULT |
| --- | --- | --- |
| Clc1ccc([O][In]([O]c2ccc(Cl)cn2)[O]c2ccc(Cl)cn2)nc1 | GI50 | 25200 nM |
| Fc1cccc(COc2ccc(Nc3ncnc4sc(-c5ccco5)cc34)cc2Cl)c1 | GI50 | > 25000 nM |
| O=C(Nc1ccc(OC(F)(F)F)cc1)c1sccc1NCc1ccnc2ccccc12 | GI50 | 2630 nM |
| NS(=O)(=O)c1ccc(N2Cc3cc(Cl)ccc3OC3=C2C(=O)N(CC2CCCCC2)C3=O)cc1 | GI50 | 1810 nM |
| O=C(O)c1cc[c]([Hg][S]c2ncnc3nc[nH]c23)cc1 | GI50 | 11700 nM |
| COc1cc(Nc2ccnc(N3CCN(c4ccnc5cc(Cl)ccc45)CC3)n2)cc(OC)c1 | GI50 | 289 nM |

Exercise: Give a short answer stating reported GI50 for C[n+]1cc2c3c(ccc2c2ccc4cc5c(cc4c21)OCO5)OCO3 .
Solution: 1220 nM

Exercise: Given the molecule CCN(CCCCCCCCCCN1CC(=O)N(CCCCCCCCCCN(CC)Cc2ccccc2OC)CC1=O)Cc1ccccc1OC , write its reported GI50.
Solution: 1150 nM

Exercise: Please list GI50 recorded for the molecule COc1cc(C2c3cc4c(cc3[C@@H](Nc3ccc(N(C)C)cc3)[C@H]3COC(=O)C23)OCO4)cc(OC)c1O (stereo not given in full)
Solution: 223 nM

Exercise: Provide one value: measured GI50 of Cn1cc(C2=C(c3cn(C)c4ccc(N)cc34)C(=O)NC2=O)c2ccccc21
Solution: 6830 nM

Exercise: Determine its reported GI50: C/C(=N\O)c1ccc(Nc2cc(-n3nnc4ccccc43)nc3ccccc23)cc1
Solution: 10300 nM

Exercise: Answer with reported GI50 of CC1(C)N=C(N)N=C(N)N1c1ccc(CCc2ccccc2)c(Cl)c1
Solution: 52.9 nM

Exercise: Supply GI50 value. Item: C[C@]12CC[C@@H]3c4ccc(O)c([N+](=O)[O-])c4CC[C@H]3[C@@H]1CC[C@@H]2NS(=O)(=O)c1ccc(C(F)(F)F)cc1
Solution: 2960 nM

Exercise: # return recorded GI50 for input CC[O-].CC[O-].O=C1C(=C([O-])c2ccccc2)C(=O)c2ccccc21.O=C1C(=C([O-])c2ccccc2)C(=O)c2ccccc21.[Ti+4]
Solution: 98400 nM

Exercise: Return GI50 (reported value) for this molecule: COc1cc(-c2csc(NC(=O)c3cc(C(F)(F)F)cc(C(F)(F)F)c3)n2)cc(OC)c1OC
Solution: 2270 nM
